Kindly supply the reported Emis. peak values for the records listed here.
- METHOD_SUMMARY: Measuring spectral characteristics (absorption and emission maxima, extinction coefficients)
- Type: physicochemical
- PARTICULARS: acetonitrile; anionic form
# number only, unit nm dropped from output

Value of measured Emis. peak for the entry CN(C)/C=C/C1=NC(=C\c2ccc(O)cc2B(F)F)/C(=O)N1C [p-HOBDI-dimethylaminoethenyl-BF2] : 598

// field: Emis. peak; key: CC1=N/C(=C\c2ccc(O)cc2B(F)F)C(=O)N1C [p-HOBDI-BF2] ; value = 540

Data point: CC1=N/C(=C\c2cc(F)c(O)c(F)c2B(F)F)C(=O)N1C [di-F-p-HOBDI-BF2] ; Emis. peak = 542

Entry CC1=N/C(=C\c2cc(F)c(O)cc2B(F)F)C(=O)N1C [F-p-HOBDI-BF2] , Emis. peak reported as 543

---

- METHOD_SUMMARY: Measuring spectral characteristics (absorption and emission maxima, extinction coefficients)
- Type: physicochemical
- PARTICULARS: ethanol
PROPERTY_MEASURED: ext. coef. (M⁻¹ cm⁻¹)
Write the value in M⁻¹ cm⁻¹ as a bare number.

Please fill in: ext. coef. reported for CCN(CC)c1ccc(/C=C2\N=C(C)N(C)C2=O)c(B(F)F)c1 = 59000

---

- METHOD_SUMMARY: Measuring spectral characteristics (absorption and emission maxima, extinction coefficients)
- Type: physicochemical
- PARTICULARS: acetonitrile; neutral form
Please provide measured Abs. peak for the entries that follow.
// units = nm; emit number, no label

Lookup result for CC1=N/C(=C\c2ccc(O)cc2B(F)F)C(=O)N1C ; measured Abs. peak: 402

Entry CC1=N/C(=C\c2cc(F)c(O)c(F)c2B(F)F)C(=O)N1C ; Abs. peak = 392

Short answer for CC1=N/C(=C\c2cc(F)c(O)cc2B(F)F)C(=O)N1C : Abs. peak was 397

Lookup result for CN(C)/C=C/C1=NC(=C\c2ccc(O)cc2B(F)F)/C(=O)N1C ; measured Abs. peak: 444

---

- METHOD_SUMMARY: Quantum yield of fluorescence
- Format: physicochemical
- PARTICULARS: acetonitrile
PROPERTY_MEASURED: Quantum yield of fluorescence
Reply with just the number.

Record summary for CC1=N/C(=C\c2ccc(O)cc2B(F)F)C(=O)N1C : reported Quantum yield of fluorescence = 0.73

Reported Quantum yield of fluorescence of CC1=N/C(=C\c2ccc(N)cc2B(F)F)C(=O)N1C : 0.62

Given item CC1=N/C(=C\c2ccc(N(C)C)cc2B(F)F)C(=O)N1C , the value recorded as its Quantum yield of fluorescence is 0.49

Quantum yield of fluorescence measured on CCN(CC)c1ccc(/C=C2\N=C(C)N(C)C2=O)c(B(F)F)c1 = 0.34

---

- METHOD_SUMMARY: Measuring spectral characteristics (absorption and emission maxima, extinction coefficients)
- Assay type: physicochemical
- PARTICULARS: acetonitrile; anionic form
Exercise: for every item that follows, state its recorded Abs. peak.
Output spec: scalar in nm, unitless text.

Field Abs. peak (entry CC1=N/C(=C\c2cc(F)c(O)cc2B(F)F)C(=O)N1C [F-p-HOBDI-BF2] ) reads 522

Value of measured Abs. peak for the entry CC1=N/C(=C\c2cc(F)c(O)c(F)c2B(F)F)C(=O)N1C [di-F-p-HOBDI-BF2] : 519

The compound listed as CC1=N/C(=C\c2ccc(O)cc2B(F)F)C(=O)N1C [p-HOBDI-BF2] has a reported Abs. peak of 521

For record CN(C)/C=C/C1=NC(=C\c2ccc(O)cc2B(F)F)/C(=O)N1C [p-HOBDI-dimethylaminoethenyl-BF2] the listed Abs. peak is 555

Origin of the recorded values: patent US9133220B2
